Molecular target: T1, human LAG3 (construct not stated) (human, UniProt P18627 23-450, limits assumed)
T1 construct: also called human LAG3 protein; antigen
T1 sequence (looked up): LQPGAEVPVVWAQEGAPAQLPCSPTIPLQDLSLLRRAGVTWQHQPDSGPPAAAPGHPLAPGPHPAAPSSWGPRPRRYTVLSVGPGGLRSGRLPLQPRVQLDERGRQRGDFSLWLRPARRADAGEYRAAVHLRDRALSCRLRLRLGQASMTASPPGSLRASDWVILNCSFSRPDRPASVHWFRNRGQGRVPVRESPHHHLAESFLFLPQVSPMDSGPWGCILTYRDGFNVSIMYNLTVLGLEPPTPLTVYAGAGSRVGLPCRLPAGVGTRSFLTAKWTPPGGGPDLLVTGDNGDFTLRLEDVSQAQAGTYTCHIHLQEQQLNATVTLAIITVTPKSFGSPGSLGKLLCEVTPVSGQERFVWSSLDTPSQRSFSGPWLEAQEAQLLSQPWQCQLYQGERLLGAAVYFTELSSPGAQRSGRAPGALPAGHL
Assay: BLI Octet Red 96, affinity ranking
We begin with a simple list: items and their reported kon.
Report only the number, with the unit M⁻¹ s⁻¹ understood.

Guide cases for kon, answers given:
147H-12 (antibody, V domains shown, Common light chain; human gamma 1 / kappa constant domains) VH: EVQLVQSGAEVKKPGASVKVSCKASGYTFTNYWLGWVRQAPGQGLEWIGDIYPGGDYINYNEKFKGKATLTADTSISTAYMELSRLRSDDTAVYYCARPNLPGDYWGQGTTVTVSS VL: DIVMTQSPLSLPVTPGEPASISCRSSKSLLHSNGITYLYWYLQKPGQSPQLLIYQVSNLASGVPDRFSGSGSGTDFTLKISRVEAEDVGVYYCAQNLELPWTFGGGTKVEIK | 62300
147H-9 (antibody, V domains shown, Common light chain; human gamma 1 / kappa constant domains) VH: EVQLVQSGAEVKKPGASVKVSCKASGYTFTNYWLGWVRQAPGQGLEWMGDIYPGGDYINYNEKFKGRVTMTADTSISTAYMELSRLRSDDTAVYYCARPNLPGDYWGQGTTVTVSS VL: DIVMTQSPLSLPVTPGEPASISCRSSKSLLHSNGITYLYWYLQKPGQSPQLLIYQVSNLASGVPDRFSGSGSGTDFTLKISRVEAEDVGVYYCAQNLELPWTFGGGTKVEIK | 67400
147H-13 (antibody, V domains shown, Common light chain; human gamma 1 / kappa constant domains; also called 147H4-13) VH: EVQLVQSGAEVKKPGASVKVSCKASGYTFTNYWLGWIKQAPGQGLEWIGDIYPGGDYINYNEKFKGKATLTADTSISTAYMELSRLRSDDTAVYYCARPNLPGDYWGQGTTVTVSS VL: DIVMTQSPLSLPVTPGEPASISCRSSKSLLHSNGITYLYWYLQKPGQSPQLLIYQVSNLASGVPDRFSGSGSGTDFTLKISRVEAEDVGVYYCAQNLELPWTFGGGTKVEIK | 108000

Query: Can you share its kon? I mean this binder: 147H-7 (antibody, V domains shown, Common light chain; human gamma 1 / kappa constant domains) VH: QVQLVQSGAEVKKPGASVKVSCKASGYTFTNYWLGWIKQAPGQGLEWIGDIYPGGDYINYNEKFKGKATLTADTSISTAYMELSRLRSDDTAVYFCARPNLPGDYWGQGTTVTVSS VL: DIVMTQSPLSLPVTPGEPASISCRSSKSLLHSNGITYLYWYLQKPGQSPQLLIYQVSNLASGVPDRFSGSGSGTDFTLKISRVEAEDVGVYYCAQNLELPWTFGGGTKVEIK
Response: 152000

Query: What value of kon has been recorded for this entry: 147H-4 (antibody, V domains shown, Common light chain; human gamma 1 / kappa constant domains) VH: QVQLVQSGAEVKKPGASVKVSCKASGYTFTNYWLGWVRQAPGQGLEWMGDIYPGGDYINYNEKFKGKATLTADTSISTAYMELSRLRSDDTAVYYCARPNLPGDYWGQGTTVTVSS VL: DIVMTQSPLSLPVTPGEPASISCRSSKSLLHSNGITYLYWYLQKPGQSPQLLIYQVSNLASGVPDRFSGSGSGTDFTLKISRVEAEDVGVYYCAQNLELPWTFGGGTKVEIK
Response: 86200
